assay: self-splicing fitness, log relative to wild type (ln ratio); higher = more splicing; Tetrahymena group I intron in knt gene, E. coli kanamycin selection, DiMSum; sequences stand for … in CUCUCU…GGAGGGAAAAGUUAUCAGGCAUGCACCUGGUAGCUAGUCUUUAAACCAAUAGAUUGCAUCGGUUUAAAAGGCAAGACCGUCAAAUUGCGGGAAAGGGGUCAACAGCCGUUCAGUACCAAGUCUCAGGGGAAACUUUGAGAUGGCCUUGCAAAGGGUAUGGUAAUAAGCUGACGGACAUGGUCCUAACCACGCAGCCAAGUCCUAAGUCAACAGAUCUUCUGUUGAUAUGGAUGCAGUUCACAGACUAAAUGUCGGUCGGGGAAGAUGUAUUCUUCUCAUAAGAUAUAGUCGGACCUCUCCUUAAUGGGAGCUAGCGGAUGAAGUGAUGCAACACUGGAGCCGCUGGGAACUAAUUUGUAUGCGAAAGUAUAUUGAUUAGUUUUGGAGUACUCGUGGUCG; conditions: 30 °C;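 note: selection with 25 µg/mL kanamycin versus none on LB agar overnight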
Attribute Measured: self-splicing fitness (ln)
One number for each entry.

Record excerpt, results attached:
- Biopolymer Sequence: "GAACAGCAAUAUUACGGAUG"
  self-splicing fitness (ln): -2.79
- Biopolymer Sequence: "CAAGAGCAAUAUUACGUGCA"
  self-splicing fitness (ln): -2.97
- Biopolymer Sequence: "AUUUAGCAAUAUUACGGAAG"
  self-splicing fitness (ln): -1.33

Value sought for every listed sequence: self-splicing fitness (ln).
1. GUUUAGCAAUAUUACGUACA
2. GUCGAGCAAUAUUACGCGUC
3. UGUUAGCAAUAUUACGAACA
4. CCUCAGCAAUAUUACGGAGG

**A:**
1. -0.582
2. -1.43
3. -1.08
4. -4.45

Reference source: the supplement of paper PMC7877785
